Catalogue of growth inhibition readings, one per entry.
assay: Restrictive medium S. cerevisiae growth inhibition, OD615, pilot screen of yeast lifespan reduction project, restrictive growth control (AID 706); conditions: OD615, 48 h, at 10 µM, hits give high values;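 further: modified DeaD lifespan yeast strain shifted to restrictive glucose medium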
readout: growth inhibition (%)

>>> print(df.to_string())
                                   molecule  unit_info  quantitative_result
0  O=C(CC1SC(=Nc2ccccc2)N(CCCCO)C1=O)NCc1ccccc1 (stereo unspecified)          %                -5.89
1  Cc1ccc(-n2c(C)cc(C(=O)OCC(=O)N(C)C3CCS(=O)(=O)C3)c2C)cc1 (stereo unspecified)          %                -17.3
2                     CC(/C=C/c1ccccc1)=N/O          %                 2.71
3            CC(=O)Nc1ccc(C(=O)c2ccccc2)cc1          %                 6.52
4  Cc1nnc(NC(=O)CSc2nnc(Cc3cccn3C)n2-c2ccccc2)s1          %                 46.5
5  CC1=C(C(=O)N(C)C)C(c2cccc(Cl)c2)NC(=O)N1 (stereo unspecified)          %                -14.6

---

test: growth suppression of PTEN-deleted HCT116, pilot screen, cell-based, HCT116 clonal line, CellTiter-Glo (AID 824); details: 60 h, at 10 µM, hits give low values;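 further: 0% = 20 µM Hyamine control and 100% = vehicle cell control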
Inconclusive results are not listed.
Catalogue of viability readings, one per entry.
readout: viability (%)

>>> df
                                    compound  unit_info  quantitative_result
 0  CCOCCCNC(=O)CCCn1nc(C)n2c(cc3sccc32)c1=O          %                   98
 1  Cc1ccc2oc(=O)c3cnn(CC(=O)N(CCC(C)C)Cc4ccco4)c3c2c1          %                 87.3
 2  CCOC(=O)c1ccccc1NC(=O)Cn1cnc2c(nnn2-c2ccc(C)cc2)c1=O          %                   88
 3  O=C(NCCc1ccc(Cl)cc1)C1CC(=O)N(C2CCCCC2)C1 (stereo unspecified)          %                  101
 4       CCCCNc1nc2c(c(=O)n(C)c(=O)n2C)n1CCC          %                   96
 5  CCN(CCCNC(=O)Cn1ncc2c(=O)oc3ccccc3c21)c1cccc(C)c1          %                 87.5
 6  CC(C)(Oc1ccc(Cl)cc1)C(=O)N1CCN(c2ccccn2)CC1          %                 76.1
 7   COc1cc(OC)cc(C(=O)OCn2nnc3ccccc3c2=O)c1          %                 96.1
 8  CCc1ccc(-c2nc(C(N)=O)c3[nH]c(=O)n(-c4ccccc4OC)c3n2)cc1          %                   24
 9  CC1CCC(n2c(=S)[nH]c3ccccc3c2=O)CC1 (stereo unspecified)          %                 75.4
10            CCCc1ccc(-c2ccc(C(=O)O)cc2)nc1          %                 95.9
